Molecular target: T1, human IL-10Rβ ECD (human, UniProt Q08334 20-220)
T1 construct: extracellular domain; Immobilized for SPR under the same conditions as for the IL-2 specific VHHs
T1 sequence (looked up): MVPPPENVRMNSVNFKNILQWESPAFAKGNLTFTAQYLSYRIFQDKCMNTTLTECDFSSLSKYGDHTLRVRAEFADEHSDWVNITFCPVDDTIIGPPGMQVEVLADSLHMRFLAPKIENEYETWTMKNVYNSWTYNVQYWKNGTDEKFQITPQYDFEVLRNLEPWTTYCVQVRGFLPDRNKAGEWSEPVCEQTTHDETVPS
Assay: SPR, kinetic fit, immobilized human IL-10Rβ ECD
Below: a set of entries, each annotated with reported Kd.
Quick note: unit goes after the number.

Study these solved cases before continuing.
10Rβ-VHH4 (VHH, member of the group m13; also called VHH4 (IL-10Rβ VHH)) VHH: QVQLQESGGGSVQAGGSLRLSCAASGYTYSSYCMGWFRQASGKEREGVATIDSDGSTRYADSVKGRFTISKDNAKNTLYLQMNSLKPEDTAMYYCAADLADCAPSIYSDYDVAHWGQGTQVTVSS | 2.2 nM
10Rβ-VHH1 (VHH, member of the group m13; also called VHH1 (IL-10Rβ VHH)) VHH: QVQLQESGGGSVQAGGSLRLSCAARYTYSTYCMGWFRQAPGKEREGVAAIDSDGSTSYADSVKGRFTISKDNAKNTLYLQMNSLKPEDTAMYYCASDADCDLGGSWSTRGQGTQVTVSS | 1.6 nM
10Rβ-VHH2 (VHH, member of the group m13; also called VHH2 (IL-10Rβ VHH)) VHH: QVQLQESGGGSVQTGGSLRLSCAASQVNMNSVGWFRQAPGKAREGVATISPSGGATYYTDSVKGRFTISRDNAKNTVYLQMNSLNAEDTAMYYCAADGGRDWWLLRPQTFSYWGQGTQVTVSS | 2.2 nM
10Rβ-VHH3 (VHH, member of the group m13; also called VHH3 (IL-10Rβ VHH)) VHH: QVQLQESGGGSVQVGGSLRLSCAASGYTYSNYCMGWFRQAPGKEREGVATIDGDGSTRYADSVKGRFTISKDNAKNTLYLQMHSLKPEDTAMYYCAADFALCDPTVVAHTDFGYWGQGTQVTVSS | 2.5 nM

Shifting focus to the binder that follows.
Dear colleague, I am looking for the recorded Kd of the following binder: 10Rβ-VHH5 (VHH, member of the group m13; also called VHH5 (IL-10Rβ VHH)) VHH: QVQLQESGGGSVQAGGSLRLSCAASGYTYSSYCMGWFRQAPGKEREGVAAIDSDGSTSYADSVKGRFTISKDNAKNTLYLQMNSLKPEDTAMYYCAAEPWCTSQGRGRESAEFGYWGQGTQVTVSS
1.7 nM
